TEST: Quantitative High-Throughput drug screen in 47 multiple myeloma cell lines against the NCATS MIPE library collection: ARD_JJKsccE7 cell viability assay (AID 1918929)
CONDITION NOTES: ARD myeloma cell line viability, CellTiter-Glo, 48 h; series mostly up to 45.8 µM
Inconclusive results are not listed. The source made the active and inactive calls. The call rests on the fitted dose curve; in most records, active means well fitted cell-killing curve with a large enough effect; inconclusive means small, poorly fitted or top-dose-only effect, or effect the other way; inactive means no such curve, though single readings can be large or run the other way.
Outcome codes: active, inactive

In [3]: df
Out[3]:
                                   compound  assigned_label
0  OCc1ccccc1O[C@@H]1O[C@H](CO)[C@H](O)[C@H](O)[C@H]1O        inactive
1  O=C(O)C[C@H](O)C[C@H](O)C=Cc1c(C2CC2)nc2ccccc2c1-c1ccc(F)cc1          active
2  O=c1[nH]c(=O)n([C@H]2C[C@@H](O)[C@@H](CO)O2)cc1F          active
3  CN1[C@H]2CC(OC(=O)[C@@H](CO)c3ccccc3)C[C@H]1[C@H]1O[C@H]12 (stereo not given in full)        inactive
4  CCN(CC)Cc1ccc2cc(COC(=O)Nc3ccc(C(=O)NO)cc3)ccc2c1          active
